Provenance of the data: PubChem BioAssay (NCI)

# TGI listing for each entry below
Test system: LOX IMVI melanoma
Test details: NCI tumour cell line growth inhibition, 48 h
Experimental readout: TGI (µM)

Compound	Assayed target	Units label	Prefix operator	Value observed
COC1=CC(C2c3cc4c(cc3[C@@H](Nc3ccc([N+](=O)[O-])cc3)C3COC(=O)[C@H]23)OCO4)=CC(=O)C1=O (stereo not given in full)	LOX IMVI melanoma	µM	=	13.2
COc1cc(-c2nn(C(=O)NS(=O)(=O)c3ccc(C)cc3)cc2-c2ccncc2)ccc1Cl	LOX IMVI melanoma	µM	=	18.1
O=C(Nc1cccc2cccnc12)c1ccc(N2C(=O)[C@@H]3[C@H](C2=O)[C@@H]2C=C[C@H]3C2)cc1	LOX IMVI melanoma	µM	>	100
COC(=O)[C@@H](Cc1c[nH]c2ccccc12)NC(=O)/C=C/c1ccccc1	LOX IMVI melanoma	µM	>	100
O=c1oc2ccccc2cc1-c1nnc(-c2ccccc2)s1	LOX IMVI melanoma	µM	>	100
CN(C)CCOc1nc2c3cccnc3cc(-c3cccc(Cl)c3)c2c2ncccc12	LOX IMVI melanoma	µM	=	4.5
N#CC1=C(C#N)/C(=C(\C#N)C(C#N)C#N)N=C1N	LOX IMVI melanoma	µM	=	55.8
Cc1cnc2[nH]c(-c3ccc(F)cc3)cc(=O)c2c1	LOX IMVI melanoma	µM	>	100
CCOC(=O)C1=C(NC(C)(C)C)OCC1=O	LOX IMVI melanoma	µM	>	100
Nc1nc(N)nc(-c2cnccn2)n1	LOX IMVI melanoma	µM	>	100

====

Tested on: KM12 colon
Test details: NCI tumour cell line growth inhibition, 48 h
# TGI listing for each entry below

Molecule	TGI
O=C(Nc1cccc(C(F)(F)F)c1)c1cccc(NC2=C(Cl)C(=O)N(Cc3ccccc3)C2=O)c1	> 100 µM
O=[N+]([O-])c1cc(Cl)cc2c1nc(NCCO)c1ccccc12	93.7 µM
CCCCCCNC(=O)Oc1ccc(/C(=C(\C)c2ccccc2)c2ccc(OCCN3CCCCC3)cc2)cc1	7.63 µM
CC1(C)OC(=O)C(C)(C)OC1=O	> 100 µM
O=C(Nc1cccc2cccnc12)c1ccc(N2C(=O)[C@@H]3[C@H](C2=O)[C@@H]2C=C[C@H]3C2)cc1	> 100 µM
C/C(=N\NC(=O)/C(C#N)=C\c1ccc(N(CCC#N)CCC#N)cc1)c1ccccc1	> 10 µM
CC1=Nc2c([nH]c(=S)[nH]c2=O)NC(c2ccc(Cl)c(Cl)c2)C1 (stereo not given)	32.3 µM
O=C(O)c1ccc(S(=O)(=O)N=Nc2c(O)[nH]c3ccccc23)cc1	> 100 µM
O=C(CCc1ccccc1)On1nnc2ccccc2c1=O	> 100 µM
COc1cc2c(cc1OC)C1C(O)C(OC)C=C3CC[N+](C)(C2)C31 (stereo not given)	> 100 µM
COc1cccc2c1cc([N+](=O)[O-])c1c(C(=O)O)cc3c(c12)OCO3	> 87.2 µM
O=C(CC1(O)C(=O)Nc2ccc(Br)cc21)c1ccc(C(=O)NCC2CCC3(CC2)OOC2(CCCCC2)OO3)cc1 (stereo not given)	31.2 µM
CN(C)c1ccc(/C=C2\N=C(N/N=C/c3ccccc3)NC2=O)cc1	> 100 µM
O=C(O)c1ccccn1	> 100 µM
N#CC1=C(C#N)/C(=C(\C#N)C(C#N)C#N)N=C1N	> 100 µM
CC12CCc3ccccc3C1=Nc1ccccc12 (stereo not given)	91.9 µM
CC1=CCC[C@@](C)(O)[C@@H]2C[C@H]3C(CSc4ccccc4)C(=O)O[C@H]3[C@@H](O2)[C@H](C)CCC1 (stereo not given in full)	22.6 µM
c1ccc2[nH]c3[nH]c4[nH]c5ccccc5[nH]c4[nH]c3[nH]c2c1	> 100 µM
COC1=CC(C2c3cc4c(cc3[C@@H](Nc3ccc([N+](=O)[O-])cc3)C3COC(=O)[C@H]23)OCO4)=CC(=O)C1=O (stereo not given in full)	26.4 µM
CCOC(=O)CNC(=O)CCCn1c(=O)c2c3ccccc3n(C)c2n2nnc(-c3ccccc3)c12	> 50 µM
